Cited source: patent US20080039455A1

target_desc: human recombinant ALK1 (GST fused to ALK1 intracellular domain [His142-Gln503]) (Homo sapiens)
Construct: GST fused to ALK1 intracellular domain [His142-Gln503]
Sequence (P37023 142-503): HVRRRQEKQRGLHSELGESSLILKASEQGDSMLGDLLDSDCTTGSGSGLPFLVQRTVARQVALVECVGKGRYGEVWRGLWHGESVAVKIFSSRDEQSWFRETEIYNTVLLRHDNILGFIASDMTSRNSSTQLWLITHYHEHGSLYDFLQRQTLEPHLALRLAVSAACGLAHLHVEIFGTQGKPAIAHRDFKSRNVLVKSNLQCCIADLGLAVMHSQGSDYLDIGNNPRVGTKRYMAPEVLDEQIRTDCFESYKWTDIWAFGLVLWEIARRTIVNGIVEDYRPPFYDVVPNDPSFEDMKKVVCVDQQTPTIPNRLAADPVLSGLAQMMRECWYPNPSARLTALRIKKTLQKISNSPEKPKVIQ
assay_procedure: ALK1-Kinase Flashplate-Assay
test_context: 0.5 μM ATP, biotinylated α-casein substrate; read-out: Assay 1 (ALK1-Kinase Flashplate-Assay IC50 class)
pIC50: −log10 of the molar value.
property_name: pIC50

**Q:** Requested read-out: pIC50. Entry: NC(=O)c1cccc(-c2cnn3ccc(NC4CCC(O)CC4)nc23)c1 (stereo not drawn)
**A:** 5.00 to 6.00

**Q:** Would you kindly share the measured pIC50 for `c1cc(CNc2ccn3ncc(-c4ccc5c(c4)OCO5)c3n2)ccn1` ?
**A:** > 6.00

**Q:** Reported pIC50 for `COc1cncc(-c2cnn3ccc(Nc4ccc(C)c(NS(C)(=O)=O)c4)nc23)c1` : what is it?
**A:** 5.00 to 6.00

**Q:** Fill blank: measured pIC50 of the compound `NC(=O)c1cccc(-c2cnn3ccc(NCc4cccnc4)nc23)c1` is ____.
**A:** 5.00 to 6.00

**Q:** Consider the compound shown here: `NC(=O)c1cccc(-c2cnn3ccc(Nc4ccc(Oc5ccccc5)cc4)nc23)c1` What is its recorded pIC50?
**A:** 5.00 to 6.00

**Q:** I am curious: what pIC50 value has been reported for `COc1cc(-c2cnn3ccc(Nc4ccc(F)c(Cl)c4)nc23)cc(OC)c1OC` ?
**A:** 5.00 to 6.00

**Q:** Quick one: pIC50 for `COc1ccc(-c2cnn3ccc(NCCO)nc23)cc1OC` ?
**A:** > 6.00

**Q:** Sample `COc1cccc(-c2cnn3ccc(Nc4cccc(Cl)c4)nc23)c1` — what was its pIC50?
**A:** 5.00 to 6.00

**Q:** Requested field: pIC50. Item: `COc1cc(-c2cnn3ccc(NCCO)nc23)cc(OC)c1OC`
**A:** > 6.00
